- Test system: Vero E6 infected with SARS-CoV-2
- procedure text: inhibition of SARS-CoV-2 cytopathic effect; higher = more antiviral protection, active = above 15
- experimental parameters: 8.33 nM; 48 h
property label: inhibition of SARS-CoV-2 cytopathic effect (%)
Give the value in % but do not write % after it.

Below, 5 molecules whose answers are already recorded.
O=C(O)Cn1c2c(c3cc(F)ccc31)CN(C(=O)c1cccc3ccccc13)CC2 [setipiprant] = -1.86
CCn1c(O)nnc1-c1ccc(Cl)cc1 [5-(4chlorophenyl)-4-ethyl-2,4-dihydro-3H-1,2,4-triazol-3-one] = -2.31
CC(C)NCC(O)COc1cccc2[nH]c3ccccc3c12 (stereo not given) [carazolol] = -2.21
COc1ccc(C(=O)Nc2sc3c(c2C(N)=O)CCCC3)cc1OC = -0.47
CCC1(C)CC(=O)NC(=O)C1 [bemegride] = -2.18

API: value(readout=inhibition of SARS-CoV-2 cytopathic effect, system=Vero E6 infected with SARS-CoV-2) for record `CCN(CC)CCNC(=O)c1ccccc1I`
1.7

API: value(readout=inhibition of SARS-CoV-2 cytopathic effect, system=Vero E6 infected with SARS-CoV-2) for record CC(=O)NCC(=O)N[C@H](CCC(=O)O)C(=O)O [N-acetylglycyl-D-glutamic-acid]
-0.41

API: value(readout=inhibition of SARS-CoV-2 cytopathic effect, system=Vero E6 infected with SARS-CoV-2) for record C=CCSCC1Nc2cc(Cl)c(S(N)(=O)=O)cc2S(=O)(=O)N1 (stereo not given) [althiazide]
0.99

API: value(readout=inhibition of SARS-CoV-2 cytopathic effect, system=Vero E6 infected with SARS-CoV-2) for record CC(=O)Nc1ccc(OC(C)=O)cc1 [diacetamate]
0.65

---

- System: Vero E6 infected with SARS-CoV-2
- procedure text: inhibition of SARS-CoV-2 cytopathic effect; higher = more antiviral protection, active = above 15
- experimental parameters: 833.33 nM; 48 h
Measured inhibition of SARS-CoV-2 cytopathic effect accompanies every entry in the list below.
Give the value in % but do not write % after it.

CCCCCCCCCCCC1=C(O)C(=O)C=C(O)C1=O [embelin] = -2.76
Cn1c(=O)c2c(ncn2CC2OCCO2)n(C)c1=O [doxofylline] = -1.59
NS(=O)(=O)c1cc2c(cc1Cl)NC(CC1CCCC1)NS2(=O)=O (centres undefined) [cyclopenthiazide] = -2.85
O=C1Nc2ccccc2C2(CCN(CCc3ccc(C(F)(F)F)cc3)CC2)O1 = -2.49
Cc1cnc(C(=O)N[C@H]2CCCCC/C=C\[C@@H]3C[C@@]3(C(=O)NS(=O)(=O)C3CC3)NC(=O)[C@@H]3C[C@@H](Oc4nc5ccccc5c5ccccc45)CN3C2=O)cn1 [paritaprevir] = 0.24

What does the data say about its inhibition of SARS-CoV-2 cytopathic effect? Entry: `N#C/C(=C\c1ccc(O)c(O)c1)C(=O)NCc1ccccc1`
0.08

What does the data say about its inhibition of SARS-CoV-2 cytopathic effect? Entry: Nc1ccc(C(=O)O)c(O)c1 [aminosalicylate]
0.11

What does the data say about its inhibition of SARS-CoV-2 cytopathic effect? Entry: O=C(O)CCCCCCNC1c2ccccc2CCc2ccccc21 [amineptine]
-1.42

What does the data say about its inhibition of SARS-CoV-2 cytopathic effect? Entry: `O=C(Oc1cc(S(=O)(=O)c2ccccc2)ccc1[N+](=O)[O-])c1ccc(Cl)cc1`
-0.23

What does the data say about its inhibition of SARS-CoV-2 cytopathic effect? Entry: C[C@@]12CCc3occc3[C@H]1CC[C@@]13C[C@@H](CC[C@H]12)[C@@](O)(CO)C3 [cafestol]
2.62

---

- Test system: Vero E6 infected with SARS-CoV-2
- procedure text: morphology score (similarity to uninfected cells); higher = more like uninfected cells
- experimental parameters: 24 h
Measured morphology score accompanies every entry in the list below.
Form rule: numeric answer, no unit written next to it.

What does the data say about its morphology score? Entry: CC(=O)NCCc1c[nH]c2ccccc12 [N-acetyltryptamine] (10 µM)
0.0383

---

Measured SARS-CoV-2 infection rate accompanies every entry in the list below.
- System: Vero E6 infected with SARS-CoV-2
- procedure text: SARS-CoV-2 infection rate relative to infected DMSO; higher = more infection, active = 60 or less
- experimental parameters: 24 h
Give the value in % but do not write % after it.

Below, 8 compounds whose answers are already recorded.
Nc1nc2c(cnn2CCc2ccccc2)c2nc(-c3ccco3)nn12 (10 µM) = 112
CN(C)[C@@H]1C(O)=C(C(N)=O)C(=O)[C@@]2(O)C(O)=C3C(=O)c4c(O)cccc4[C@@](C)(O)[C@H]3C[C@@H]12 [tetracycline] (10 µM) = 100
CC(C)[C@@H](C(=O)Nc1nccs1)c1ccc(Cl)cc1 (10 µM) = 98.5
O=C1NC(=O)c2cc(Nc3ccc(F)cc3)c(Nc3ccc(F)cc3)cc21 (10 µM) = 77.5
O=C(Nc1cc(C(F)(F)F)ccc1O)Nc1cc(C(F)(F)F)ccc1O (10 µM) = 104
CCCCC(=O)O[C@H]1CC[C@H]2[C@@H]3CCc4cc(O)ccc4[C@H]3CC[C@]12C (10 µM) = 89
C[N+](C)(C)CC[N+]1(C)Cc2c(Cl)c(Cl)c(Cl)c(Cl)c2C1 [chlorisondamine-diiodide] (10 µM) = 90.5
CC1=C(/C=C/C(C)=C/C=C/C(C)=C/C=C/C=C(C)/C=C/C=C(C)/C=C/C2=C(C)CCCC2(C)C)C(C)(C)CCC1 [beta-carotene] (10 µM) = 112

API: value(readout=SARS-CoV-2 infection rate, system=Vero E6 infected with SARS-CoV-2) for record C/C=C/c1cc(OC)c(OC)cc1OC [alpha-asarone] (10 µM)
98.5

API: value(readout=SARS-CoV-2 infection rate, system=Vero E6 infected with SARS-CoV-2) for record CN(CCOc1ccc(C[C@H](Nc2ccccc2C(=O)c2ccccc2)C(=O)O)cc1)c1ccccn1 (10 µM)
70

API: value(readout=SARS-CoV-2 infection rate, system=Vero E6 infected with SARS-CoV-2) for record C[C@@H]1CN(c2c(F)c(F)c3c(=O)c(C(=O)O)cn(C4CC4)c3c2F)C[C@H](C)N1 [orbifloxacin] (10 µM)
96.5

API: value(readout=SARS-CoV-2 infection rate, system=Vero E6 infected with SARS-CoV-2) for record CCC(COC(=O)c1cc(OC)c(OC)c(OC)c1)(c1ccccc1)N(C)C (stereo unspecified) [trimebutine] (10 µM)
91

API: value(readout=SARS-CoV-2 infection rate, system=Vero E6 infected with SARS-CoV-2) for record CC(C)[C@H]1C(=O)N[C@@H](CCCNC(=N)N)C(=O)NCC(=O)N[C@@H](CC(=O)O)C(=O)N[C@H](Cc2ccccc2)C(=O)N1C [cilengitide] (10 µM)
109

API: value(readout=SARS-CoV-2 infection rate, system=Vero E6 infected with SARS-CoV-2) for record CCO[C@H]1O[C@@H]2O[C@@]3(C)CC[C@H]4[C@H](C)CC[C@@H]([C@H]1C)[C@@]24OO3 [artemotil] (10 µM)
113

API: value(readout=SARS-CoV-2 infection rate, system=Vero E6 infected with SARS-CoV-2) for record COC(=O)CC[C@@H]1N=C(c2ccccn2)c2cc(Br)ccc2-n2c(C)cnc21 [remimazolam] (10 µM)
95

API: value(readout=SARS-CoV-2 infection rate, system=Vero E6 infected with SARS-CoV-2) for record CN(CCOc1ccc(-c2ccc3c(c2)OCO3)cc1C(C)(C)C)CC(=O)O (10 µM)
102

---

- Test system: Vero E6 infected with SARS-CoV-2
- procedure text: inhibition of SARS-CoV-2 cytopathic effect; higher = more antiviral protection, active = above 15
- experimental parameters: 10000 nM; 48 h
Structures can show the parent of a compound that is named as a salt.
property label: inhibition of SARS-CoV-2 cytopathic effect (%)
Give the value in % but do not write % after it.

COc1cc(-n2cnc3cc(-c4ccc(Cl)cc4)sc3c2=O)ccc1OCCN1CCCC1 = 49.9

What does the data say about its inhibition of SARS-CoV-2 cytopathic effect? Entry: `CC(C)C[C@H](NC(=O)[C@H](CCc1ccccc1)NC(=O)CN1CCOCC1)C(=O)N[C@@H](Cc1ccccc1)C(=O)N[C@@H](CC(C)C)C(=O)[C@@]1(C)CO1`
10.2

What does the data say about its inhibition of SARS-CoV-2 cytopathic effect? Entry: CC/C(=C(\c1ccc(O)cc1)c1ccc(OCCNC)cc1)c1ccccc1 [Endoxifen HCl]
57

What does the data say about its inhibition of SARS-CoV-2 cytopathic effect? Entry: `Cc1cc(Nc2ccc(NC(=O)c3ccc(Nc4ccnc5ccccc45)cc3)cc2)nc(N)n1`
20.3

What does the data say about its inhibition of SARS-CoV-2 cytopathic effect? Entry: `O=C(NN1C(=O)[C@@H]2[C@@H]3C=C[C@@H]([C@H]4C[C@@H]34)[C@@H]2C1=O)c1ccc(C(F)(F)F)cc1`
-0.46

What does the data say about its inhibition of SARS-CoV-2 cytopathic effect? Entry: `O=S(=O)(/N=C/c1c(O)ccc2ccccc12)c1cccs1`
0.08

What does the data say about its inhibition of SARS-CoV-2 cytopathic effect? Entry: `CC1(C)CC(=O)c2c(C(F)(F)F)nn(-c3ccc(C(N)=O)c(N[C@H]4CC[C@H](O)CC4)c3)c2C1`
-0.66

What does the data say about its inhibition of SARS-CoV-2 cytopathic effect? Entry: `C[C@](N)(Cc1ccc(O)cc1)C(=O)O`
2.26
